List of MIC values.
System: Escherichia coli ATCC BAA-2471 (NDM-1)
Assay type: cell-based
Conditions: ATCC BAA-2471
Description: Each peptide was formulated in PBS buffer prior to testing. Peptides of SEQ ID NO:5 and SEQ ID NO:8 were brought up in 100% DMSO with 0.002% polysorbate-80 at 1.28 mg/mL (40× the highest final test concentration of 32 mcg/mL). Final test concentration of DMSO was 2.5% in the assay at the first dilution for those two compounds. […] MIC values were determined using a broth microdilution procedure described by CLSI (1, 3). […]
Ends that are not written are not given here.
measurementType: MIC

[[record]]
substance = "VWRWVRRVWRWVRRVWRWVRR [SEQ ID NO: 5]"
valuemeasured = "32 µg/mL"

[[record]]
substance = "RRWVRRVRRVWRRVVRVVRRWVRR-NH2 (C-terminus assumed) [SEQ ID NO: 1]"
valuemeasured = "2 µg/mL"

[[record]]
substance = "VWRWVRRVWRWVRR [SEQ ID NO: 6]"
valuemeasured = "1 µg/mL"

[[record]]
substance = "VVRVVRRVVRVVRR [SEQ ID NO: 7]"
valuemeasured = "16 µg/mL"

[[record]]
substance = "IRRRRRRIRRRRRR [SEQ ID NO: 2]"
valuemeasured = "32 µg/mL"

[[record]]
substance = "IRRIIRRIRRIIRRIRRIIRR [SEQ ID NO: 4]"
valuemeasured = "4 µg/mL"

[[record]]
substance = "IRRRIRRIRRRIRRIRRRIRR [SEQ ID NO: 3]"
valuemeasured = "4 µg/mL"

[[record]]
substance = "VVRVVRVVVRVVRVVVRVVRV [SEQ ID NO: 8]"
valuemeasured = ">32 µg/mL"


* * *

System: Acinetobacter baumannii ATCC 19606 (non-MDR)
Type: cell-based
Details: ATCC 19606
Ends that are not written are not given here.
measurementType: MIC (µg/mL)

[[record]]
chain = "IRRRRRRIRRRRRR [SEQ ID NO: 2]"
measurementtype = "MIC"
limitsign = "="
valuemeasured = 32

[[record]]
chain = "VVRVVRRVVRVVRR [SEQ ID NO: 7]"
measurementtype = "MIC"
limitsign = ">"
valuemeasured = 32

[[record]]
chain = "IRRRIRRIRRRIRRIRRRIRR [SEQ ID NO: 3]"
measurementtype = "MIC"
limitsign = "="
valuemeasured = 8

[[record]]
chain = "VWRWVRRVWRWVRR [SEQ ID NO: 6]"
measurementtype = "MIC"
limitsign = "="
valuemeasured = 0.5

[[record]]
chain = "VVRVVRVVVRVVRVVVRVVRV [SEQ ID NO: 8]"
measurementtype = "MIC"
limitsign = "="
valuemeasured = 32

[[record]]
chain = "VWRWVRRVWRWVRRVWRWVRR [SEQ ID NO: 5]"
measurementtype = "MIC"
limitsign = "="
valuemeasured = 16

[[record]]
chain = "IRRIIRRIRRIIRRIRRIIRR [SEQ ID NO: 4]"
measurementtype = "MIC"
limitsign = "="
valuemeasured = 8


Origin of the recorded values: patent US20220249599A1
